Reported HSA DB ELISA (OD450) Ymin obs values for the following binders.
- Target: T1, human serum albumin (HSA), full length (human, UniProt P02768 25-609)
- T1 construct: mature; Immobilized on CM5 chip (SPR) or coated on plates (ELISA)
- T1 sequence (P02768 25-609): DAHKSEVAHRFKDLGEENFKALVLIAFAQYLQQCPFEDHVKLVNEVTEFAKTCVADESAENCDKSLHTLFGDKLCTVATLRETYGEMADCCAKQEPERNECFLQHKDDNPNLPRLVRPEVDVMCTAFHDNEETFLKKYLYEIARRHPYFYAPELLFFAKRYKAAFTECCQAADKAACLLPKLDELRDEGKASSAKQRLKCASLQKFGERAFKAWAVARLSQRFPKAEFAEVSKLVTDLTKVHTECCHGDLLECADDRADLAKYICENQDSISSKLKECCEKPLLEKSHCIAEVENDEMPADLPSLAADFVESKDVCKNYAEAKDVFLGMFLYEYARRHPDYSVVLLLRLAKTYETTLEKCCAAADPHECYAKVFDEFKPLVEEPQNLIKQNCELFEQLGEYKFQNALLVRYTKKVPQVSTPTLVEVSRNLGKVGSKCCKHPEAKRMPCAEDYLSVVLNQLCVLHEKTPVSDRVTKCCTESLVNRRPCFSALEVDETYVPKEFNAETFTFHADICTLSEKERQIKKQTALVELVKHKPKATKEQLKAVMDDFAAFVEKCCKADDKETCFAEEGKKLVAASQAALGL
- Experiment description: direct binding ELISA, coated HSA, anti-His-HRP
- Set-up: unit not given here
I only need the number, thanks.

Take a look at these entries with their results.
- ADX_6727_D06 (Y44A/K85S) (designed binder, Full His6-tagged entry) MGVSDVPRDLEVVAATPTSLLISWDAPAVTVRYYRITYGREVQKYSDLGPLYIAQEFTVPGSKSTATISGLKPGVDYTITVYAVTGSGESPASSSPISINYRTEIDKPSQHHHHHH: 8
- ADX_6727_B05 (I43S/K85T) (designed binder, Full His6-tagged entry) MGVSDVPRDLEVVAATPTSLLISWDAPAVTVRYYRITYGREVQKYSDLGPLYSYQEFTVPGSKSTATISGLKPGVDYTITVYAVTGSGESPASSTPISINYRTEIDKPSQHHHHHH: 4
- ADX_6727_D01 (K85T) (designed binder, Full His6-tagged entry) MGVSDVPRDLEVVAATPTSLLISWDAPAVTVRYYRITYGREVQKYSDLGPLYIYQEFTVPGSKSTATISGLKPGVDYTITVYAVTGSGESPASSTPISINYRTEIDKPSQHHHHHH: 88

Turning now to a further record.
## Input # query: HSA DB ELISA (OD450) Ymin obs of entry ADX_6727_G05 (I43S/K85A) (designed binder, Full His6-tagged entry) MGVSDVPRDLEVVAATPTSLLISWDAPAVTVRYYRITYGREVQKYSDLGPLYSYQEFTVPGSKSTATISGLKPGVDYTITVYAVTGSGESPASSAPISINYRTEIDKPSQHHHHHH
## Output 2
